molecular target: UniProt Q9NY46; experiment: Activity against NaV 1.3 channel (optical membrane potential assay, electrical stimulation); type: cell-based; set-up: expressed in transfected cells; host or cells: HEK293; settings: NaV 1.3 channel; read-out: IC50
I'd appreciate it if you could supply IC50 values for the items below.

compound: O=C(NC1Cc2ccc(S(=O)(=O)Nc3nccs3)cc2C1)c1ccc(C(F)(F)F)cc1 (stereo not drawn) [Compound 10]
IC50: > 5000 nM
--
compound: O=C(COc1ccc(Cl)cc1)NC1Cc2ccc(S(=O)(=O)Nc3nccs3)cc2C1 (stereo not drawn) [Compound 2]
IC50: < 2000 nM

Now turn to the next compound.
Lookup result for CC(C)(C)c1ccc(OCC(=O)NC2Cc3ccc(S(=O)(=O)Nc4nccs4)cc3C2)cc1 (stereo not drawn) [Compound 12] ; measured IC50: < 2000 nM

###

Biological target: NaV1.3 (Homo sapiens)
Sequence (Q9NY46 whole entry): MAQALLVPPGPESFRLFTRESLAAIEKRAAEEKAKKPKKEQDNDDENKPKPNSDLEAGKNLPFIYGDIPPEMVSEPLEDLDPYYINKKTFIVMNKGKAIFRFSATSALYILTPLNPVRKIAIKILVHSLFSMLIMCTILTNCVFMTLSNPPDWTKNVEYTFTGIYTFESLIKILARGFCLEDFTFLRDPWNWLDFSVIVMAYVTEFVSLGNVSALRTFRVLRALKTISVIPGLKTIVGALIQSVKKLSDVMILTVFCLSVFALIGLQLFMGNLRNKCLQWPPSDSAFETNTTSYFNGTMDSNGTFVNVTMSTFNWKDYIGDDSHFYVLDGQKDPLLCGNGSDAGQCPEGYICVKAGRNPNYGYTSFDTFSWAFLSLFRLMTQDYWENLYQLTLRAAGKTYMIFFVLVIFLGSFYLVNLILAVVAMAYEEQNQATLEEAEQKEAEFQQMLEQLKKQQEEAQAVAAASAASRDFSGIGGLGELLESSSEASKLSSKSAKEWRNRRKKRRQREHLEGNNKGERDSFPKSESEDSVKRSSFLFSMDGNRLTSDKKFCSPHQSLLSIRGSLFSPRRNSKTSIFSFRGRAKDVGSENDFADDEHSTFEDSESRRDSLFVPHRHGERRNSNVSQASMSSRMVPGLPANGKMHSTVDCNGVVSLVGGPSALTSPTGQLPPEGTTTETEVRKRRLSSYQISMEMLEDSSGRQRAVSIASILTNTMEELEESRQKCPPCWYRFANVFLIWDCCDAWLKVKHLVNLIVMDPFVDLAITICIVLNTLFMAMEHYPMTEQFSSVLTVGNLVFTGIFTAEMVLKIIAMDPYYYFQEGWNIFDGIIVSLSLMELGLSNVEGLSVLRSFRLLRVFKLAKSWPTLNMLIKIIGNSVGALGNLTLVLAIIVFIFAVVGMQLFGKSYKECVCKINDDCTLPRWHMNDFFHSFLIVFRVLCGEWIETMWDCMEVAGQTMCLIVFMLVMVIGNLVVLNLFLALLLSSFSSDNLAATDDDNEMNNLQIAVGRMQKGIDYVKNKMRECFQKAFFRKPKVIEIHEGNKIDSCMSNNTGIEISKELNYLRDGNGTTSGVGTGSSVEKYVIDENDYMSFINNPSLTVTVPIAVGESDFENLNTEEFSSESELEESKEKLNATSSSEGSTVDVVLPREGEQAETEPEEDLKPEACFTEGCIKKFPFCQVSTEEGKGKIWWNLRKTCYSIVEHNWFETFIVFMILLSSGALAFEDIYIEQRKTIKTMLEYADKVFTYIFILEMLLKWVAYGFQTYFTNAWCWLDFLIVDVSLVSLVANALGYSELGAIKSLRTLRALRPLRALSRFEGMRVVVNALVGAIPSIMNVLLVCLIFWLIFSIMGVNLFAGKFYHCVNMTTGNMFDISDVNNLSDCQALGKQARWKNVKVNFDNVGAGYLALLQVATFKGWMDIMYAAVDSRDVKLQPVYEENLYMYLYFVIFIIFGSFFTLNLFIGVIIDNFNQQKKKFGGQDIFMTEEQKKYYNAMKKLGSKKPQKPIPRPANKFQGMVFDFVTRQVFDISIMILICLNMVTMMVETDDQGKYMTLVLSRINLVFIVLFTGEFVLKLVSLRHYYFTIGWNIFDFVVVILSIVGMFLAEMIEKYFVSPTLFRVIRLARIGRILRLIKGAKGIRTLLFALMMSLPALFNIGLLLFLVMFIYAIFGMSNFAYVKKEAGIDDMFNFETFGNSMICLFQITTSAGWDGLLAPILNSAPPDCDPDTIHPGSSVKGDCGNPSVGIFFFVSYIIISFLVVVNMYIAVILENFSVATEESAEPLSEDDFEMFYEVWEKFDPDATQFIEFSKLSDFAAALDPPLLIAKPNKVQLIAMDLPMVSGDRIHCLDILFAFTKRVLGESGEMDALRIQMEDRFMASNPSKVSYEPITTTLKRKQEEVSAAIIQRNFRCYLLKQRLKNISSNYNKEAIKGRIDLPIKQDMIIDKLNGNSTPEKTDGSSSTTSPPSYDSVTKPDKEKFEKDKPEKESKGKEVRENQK
Experiment: Activity against NaV 1.3 channel (optical membrane potential assay, electrical stimulation)
Format: cell-based
Parameters: expressed in transfected cells; host or cells: HEK293
Procedure: Compounds of the invention are useful as antagonists of voltage-gated sodium ion channels. Antagonist properties of test compounds were assessed as follows. Cells expressing the NaV of interest were placed into microtiter plates. […] The cells were stimulated with either a chemical or electrical means to evoke a NaV dependent membrane potential change from unblocked channels, which was detected and measured with trans-membrane potential-sensitive dyes. […]
pIC50: −log10 of the molar value.
Hi there, I'd appreciate the recorded pIC50 for every entry that follows.

compound: O=C(NC1Cc2ccc(S(=O)(=O)Nc3nccs3)cc2C1)Oc1cccc(C(F)(F)F)c1 (centres unmarked)
pIC50: > 5.70

So for O=C(NC1Cc2ccc(S(=O)(=O)Nc3nccs3)cc2C1)Oc1ccc(Cl)cc1 (centres unmarked) , the logged pIC50 turned out to be > 5.70

###

molecular target: NaV1.3 (Homo sapiens); assay: Activity against NaV 1.3 channel (optical membrane potential assay, electrical stimulation); type: cell-based; parameters: expressed in transfected cells; host or cells: HEK293; conditions: NaV 1.3 channel; read-out: IC50
Assign IC50 to each entry below.

compound: O=C(NC1Cc2ccc(S(=O)(=O)Nc3nccs3)cc2C1)c1cc(F)ccc1F (stereo not shown) [Compound 3]
IC50: > 5 µM
--
compound: O=C(CCn1ccc2cc(Cl)ccc21)NC1Cc2ccc(S(=O)(=O)Nc3nccs3)cc2C1 (stereo not shown) [Compound 4]
IC50: < 2 µM
--
compound: O=C(NC1Cc2ccc(S(=O)(=O)Nc3nccs3)cc2C1)c1ccccc1F (stereo not shown) [Compound 14]
IC50: > 5 µM

Now look at this entry.
Record summary for O=C(NC1Cc2ccc(S(=O)(=O)Nc3nccs3)cc2C1)c1ccc(Cl)c(Cl)c1 (stereo not shown) [Compound 8] : reported IC50 = 2 to 5 µM

Hey, just so you know, these numbers are from patent US7605174B2.
